tested on: RAW-Dual; assay: NF-kB SEAP reporter activity, fold change vs agonist alone; higher = enhanced NF-kB activity; conditions: library stock concentration (final ~1000-fold dilution): 10 mM; cytotoxicity flag (confluency mask): not cytotoxic; agonist: Imiquimod (TLR7) […]
In all, about 2,900 compounds were measured (“NF-kB SEAP reporter activity, fold change vs agonist alone”: median about 0.99, highest 2% from about 2.6 on). This is one part of a sample in which the highest values are shown more often than they occur.
Classification field: enter Condition met for NF-kB SEAP reporter activity values not below 0.8, Condition not met for values below it.

CCN(C(=O)c1c(O)n(C)c2cccc(Cl)c2c1=O)c1ccccc1
Condition met
CN(C)C(=O)CCSC(SCCC(=O)O)c1cccc(C=Cc2ccc3ccc(Cl)cc3n2)c1 (centres undefined)
Condition met
NC(=O)C(=Cn1cnc(-c2cc(C(F)(F)F)cc(C(F)(F)F)c2)n1)c1cncnc1
Condition not met
CC(Oc1ccc2c(c1)OCCn1cc(-c3ncnn3C(C)C)nc1-2)C(N)=O (centres undefined)
Condition not met
CCC(Nc1ncnc2[nH]cnc12)c1oc2ccccc2c(=O)c1-c1cccc(F)c1 (centres undefined)
Condition not met
O=C(O)CCN1C(=O)/C(=C2/C(=O)Nc3ccc(Cl)cc32)SC1=S
Condition met
CC(C)Nc1cc(-c2c[nH]c(C(=O)NC(CO)c3cccc(Cl)c3)c2)c(Cl)cn1 (centres undefined)
Condition not met
O=C(/C=C/N1CC2CC1CN2c1ccccn1)c1ccccc1O (centres undefined)
Condition met
CCCC(=O)OCOC(=O)C1=C(C)NC(C)=C(C(=O)OC)C1c1cccc(Cl)c1Cl (centres undefined)
Condition met
Nc1nc(NCCNc2ncc(-n3ccnc3)c(-c3ccc(Cl)cc3Cl)n2)ccc1[N+](=O)[O-]
Condition met

Tell me whether NF-kB SEAP reporter activity is at least 0.8 here: CC(C)(C)c1[nH]cnc1C=c1[nH]c(=O)c(=Cc2ccccc2)[nH]c1=O Condition met

Tell me whether NF-kB SEAP reporter activity is at least 0.8 here: CC(C)C(NC(=O)c1ccc2ccccc2n1)C(=O)NC(CC(=O)O)C(=O)COc1c(F)cccc1F (centres undefined) Condition met

Tell me whether NF-kB SEAP reporter activity is at least 0.8 here: CCCS(=O)(=O)Nc1ccc(F)c(C(=O)c2c[nH]c3ncc(-c4ccc(Cl)cc4)cc23)c1F Condition met

Tell me whether NF-kB SEAP reporter activity is at least 0.8 here: COC(=O)C1=C(C)NC(C)=C(C(=O)OCC(C)C)C1c1ccccc1[N+](=O)[O-] (centres undefined) Condition not met

---

The following molecules are listed with their measured NF-kB SEAP reporter activity values.
test system: RAW-Dual; test: NF-kB SEAP reporter activity, fold change vs agonist alone; cytotoxicity flag (confluency mask): not cytotoxic; higher = enhanced NF-kB activity; settings: agonist: Pam2CSK4 (TLR2/6) 0.1 ug/mL
Over roughly 2,900 compounds, “NF-kB SEAP reporter activity, fold change vs agonist alone” has its median near 0.99; the highest 2% begin near 2.6. What follows is part of a selection rich in the highest values, with near analogues and random picks from the rest.

Cl.Cn1cc(C(=O)Nc2ccc3c(c2)OCCO3)c2ccccc2c1=O (library stock concentration (final ~1000-fold dilution): 10 mM)
1.09
C=CC(=O)N1CC(N2CCN(C(=O)CNc3cc(C4(C)CC4)c(Cl)cc3O)CC2)C1 (library stock concentration (final ~1000-fold dilution): 10 mM)
0.537

NF-kB SEAP reporter activity lookup needed for CCCn1c(NC(=O)c2cccc(C(N)=O)c2)nc2ccccc21 (library stock concentration (final ~1000-fold dilution): 10 mM) , thanks. 0.143

NF-kB SEAP reporter activity lookup needed for COc1cc(C(N)=O)nc(-c2cccc(C#C[C@]3(O)CCN(C)C3=O)c2)c1 (library stock concentration (final ~1000-fold dilution): 10 mM) , thanks. 0.699

NF-kB SEAP reporter activity lookup needed for CC(N)C12CC3CC(CC(C3)C1)C2.Cl (stereo not given) (library stock concentration (final ~1000-fold dilution): 10 mM) , thanks. 1.24

---

The following compounds are listed with their measured NF-kB SEAP reporter activity values.
test system: RAW-Dual; experiment: NF-kB SEAP reporter activity, fold change vs agonist alone; higher = enhanced NF-kB activity; settings: library stock concentration (final ~1000-fold dilution): 10 mM; cytotoxicity flag (confluency mask): not cytotoxic; agonist: Imiquimod (TLR7) […]
The full ranking holds about 2,900 compounds; the median of “NF-kB SEAP reporter activity, fold change vs agonist alone” is about 0.99, and the highest 2% start at about 2.6. The entries come from a sample that favours the highest values as a whole.

Observe how each entry below is paired with its result.
COc1cc(C(=O)O)ccc1O
0.937
Nc1ccccc1NC(=O)c1ccc(CNC(=O)OCc2cccnc2)cc1
0.921
CC(C)n1cc(-c2ccc3c(c2)N(C)CC3)c2c(NS(=O)(=O)c3ccn(C)n3)ccnc21
0.948
Nc1ccn(C2CCC(CO)O2)c(=O)n1 (stereo unspecified)
0.994
CCOC1OC(=O)CC1NC(=O)C1CCCN1C(=O)C(NC(=O)c1ccc(N)c(Cl)c1)C(C)(C)C (stereo unspecified)
0.911
CS(=O)c1ccc(-c2nc(-c3ccc(F)cc3)c(-c3ccncc3)[nH]2)cc1 (stereo unspecified)
1.52
O=C(Oc1coc(CSc2ncccn2)cc1=O)c1ccc([N+](=O)[O-])cc1
0.717
CC(C)=CCCC(C)(OC1OC(CO)C(O)C(O)C1O)C1CCC2(C)C1C(O)CC1C3(C)CCC(O)C(C)(C)C3C(OC3OC(CO)C(O)C(O)C3OC3OCC(O)C(O)C3O)CC12C (stereo unspecified)
0.818

Lookup: NF-kB SEAP reporter activity / RAW-Dual / C=CC(=O)N1CC(N2CCN(C(=O)CNc3cc(C4(C)CC4)c(Cl)cc3O)CC2)C1 0.915

Lookup: NF-kB SEAP reporter activity / RAW-Dual / CC(=O)N1CCN(c2ccc(NC(=O)Cc3cnc(-c4ccnc(F)c4)c(C)c3)nc2)CC1 0.874

Lookup: NF-kB SEAP reporter activity / RAW-Dual / COC1/C=C/OC2(C)Oc3c(C)c(O)c4c(O)c(c(/C=N/N5CCN(C6CCCC6)CC5)c(O)c4c3C2=O)NC(=O)/C(C)=C/C=C/C(C)C(O)C(C)C(O)C(C)C(OC(C)=O)C1C (stereo unspecified) 1.11

Lookup: NF-kB SEAP reporter activity / RAW-Dual / O.S=c1nc[nH]c2nc[nH]c12 0.752

---

tested on: RAW-Dual; experiment: NF-kB SEAP reporter activity, fold change vs agonist alone; cytotoxicity flag (confluency mask): not cytotoxic; higher = enhanced NF-kB activity; settings: agonist: Pam2CSK4 (TLR2/6) 0.1 ug/mL
In all, about 2,900 compounds were measured (“NF-kB SEAP reporter activity, fold change vs agonist alone”: median about 0.99, highest 2% from about 2.6 on). For the sample, the highest values were picked, then their nearest neighbours and some compounds at random.
Classification field: enter Satisfied for NF-kB SEAP reporter activity values not below 1, Not satisfied for values below it.

Use these answered entries as a reference point.
N#Cc1ncccn1 (library stock concentration (final ~1000-fold dilution): 2 mM)
Satisfied
CN1CC(=O)N2C(Cc3c([nH]c4ccccc34)C2c2ccc3c(c2)OCO3)C1=O (stereo not drawn) (library stock concentration (final ~1000-fold dilution): 10 mM)
Satisfied
CN(c1ncccc1CNc1nc(Nc2ccc3c(c2)CC(=O)N3)ncc1C(F)(F)F)S(C)(=O)=O.O=S(=O)(O)c1ccccc1 (library stock concentration (final ~1000-fold dilution): 10 mM)
Not satisfied
CC1COC(Nc2ccc3ncnc(Nc4ccc(OCc5nccs5)c(Cl)c4)c3c2)=N1 (stereo not drawn) (library stock concentration (final ~1000-fold dilution): 10 mM)
Not satisfied
NC(=O)c1cnc2[nH]ccc2c1NC1C2CC3CC1CC(O)(C3)C2 (stereo not drawn) (library stock concentration (final ~1000-fold dilution): 10 mM)
Not satisfied
CS(=O)(=O)CCNCc1ccc(-c2ccc3ncnc(Nc4ccc(OCc5cccc(F)c5)c(Cl)c4)c3c2)o1 (library stock concentration (final ~1000-fold dilution): 10 mM)
Not satisfied

Tell me whether NF-kB SEAP reporter activity is at least 1 here: CC1CC(=O)c2c(ccc3c2C(=O)c2cccc(O)c2C3=O)C1 (stereo not drawn) (library stock concentration (final ~1000-fold dilution): 10 mM) Satisfied

---

test system: RAW-Dual; test: NF-kB SEAP reporter activity, fold change vs agonist alone; higher = enhanced NF-kB activity; conditions: library stock concentration (final ~1000-fold dilution): 10 mM; cytotoxicity flag (confluency mask): not cytotoxic; agonist: MPLA (TLR4) […]
The full ranking holds about 2,900 compounds; the median of “NF-kB SEAP reporter activity, fold change vs agonist alone” is about 0.99, and the highest 2% start at about 2.6. The entries come from a sample that favours the highest values as a whole.
Classification field: enter true (1) for NF-kB SEAP reporter activity values not below 1, false (0) for values below it.

O=C(c1c(F)ccc(NS(=O)(=O)N2CCC(F)C2)c1F)c1c[nH]c2ncc(-c3cnc(C4CC4)nc3)cc12 (stereo not given)
true (1)
O=C(Nc1ccc(-c2ccnc(Nc3ccc(N4CCOCC4)cc3)n2)cc1)C1CCCN1 (stereo not given)
true (1)
O=C(Nc1ccncc1)c1cc([N+](=O)[O-])ccc1Cl
false (0)
CNCCCC12CCC(c3ccccc31)c1ccccc12.Cl
true (1)
CN1CCN(CCCNc2ncc(Cl)c(-c3cc4c(C(=O)NC5CC5)cccc4s3)n2)CC1.Cl.Cl.Cl
false (0)

Tell me whether NF-kB SEAP reporter activity is at least 1 here: C=CC(=O)N1CC/C(=C\c2ccc(F)c([N+](=O)[O-])c2)C(=O)/C(=C/c2ccc(F)c([N+](=O)[O-])c2)C1 false (0)

Tell me whether NF-kB SEAP reporter activity is at least 1 here: CC(ONC(=O)c1cc(C(F)(F)F)cc(C(F)(F)F)c1)C(=O)Nc1ccc(Cl)cc1 (stereo not given) true (1)

Tell me whether NF-kB SEAP reporter activity is at least 1 here: CCN(C)S(=O)(=O)Nc1ccc(F)c(C(=O)c2c[nH]c3ncc(-c4cnc(C5CC5)nc4)cc23)c1F true (1)

Tell me whether NF-kB SEAP reporter activity is at least 1 here: NS(=O)(=O)c1ccccc1 true (1)
